# Test system: Citrobacter freundii
# Experiment: Antibacterial activity against Citrobacter freundii IFO1268 assessed as growth inhibition at 128 to 0.002 mg/L incubated for 18 hrs at 37 degC by agar dilution method
# Type: functional
# Assay Context: IFO1268, 18 h
Value Kind: MIC (µg/mL)

# Smiles Notation, Scale Unit, MIC
measured = [
    ("C[C@H]1COc2c(N3CCN(C)CC3)c(F)cc3c(=O)c(C(=O)O)cn1c23.C[C@H]1COc2c(N3CCN(C)CC3)c(F)cc3c(=O)c(C(=O)O)cn1c23.O", "µg/mL", 0.12),
    ("Cc1c(N2CC(NC(C)(C)C)C2)c(F)cc2c(=O)c(C(=O)O)cn(-c3nc(N)c(F)cc3F)c12", "µg/mL", 0.57),
    ("CNC1CN(c2c(F)cc3c(=O)c(C(=O)O)cn(-c4nc(N)c(F)cc4F)c3c2C)C1", "µg/mL", 0.077),
]

[1] CCNC1CN(c2c(F)cc3c(=O)c(C(=O)O)cn(-c4nc(N)c(F)cc4F)c3c2C)C1
[2] Cc1c(N2CC(N)C2)c(F)cc2c(=O)c(C(=O)O)cn(-c3nc(N)c(F)cc3F)c12
[3] CCCNC1CN(c2c(F)cc3c(=O)c(C(=O)O)cn(-c4nc(N)c(F)cc4F)c3c2C)C1
Put the entries in order of MIC, starting with the largest number. Field: ranking. Enter the labels in the order requested.
3, 1, 2
